Source listed as paper PMC10397247.

# Target: T1, 4H2697-bH
# T1 chain: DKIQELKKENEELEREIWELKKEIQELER
# Assay Details: two-hybrid library CCNG1;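 note: natural log of median RNA to DNA barcode read ratio; higher means stronger binding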
Measured Quantity: interaction score
Respond using a number only.

Per the records, this binder ( DENQELEKKIEELKRENWELKKEIQELER [4H1369-bH] ) has interaction score equal to -0.653

Per the records, this binder ( DKIQELKKEIEELERKNWELEKEIQELKR [4H2610-bH] ) has interaction score equal to -0.13

Per the records, this binder ( DKIQELKKEIEELEREIWELKKKNQELKR [4H2576-bH] ) has interaction score equal to -0.201

Per the records, this binder ( DENQELEKKNEELERKIWELEKKIQELKR [4H1446-bH] ) has interaction score equal to 1.08

Per the records, this binder ( DENQELEKKIEELERKIWELKKKNQELKR [4H1328-bH] ) has interaction score equal to 0.213

Per the records, this binder ( DKIQELKKENEELEREIWELKKEIQELER [4H2697-bH] ) has interaction score equal to 0.402

Per the records, this binder ( DENQELEKENEELERKIWELKKEIQELER [4H1193-bH] ) has interaction score equal to -0.317

Per the records, this binder ( DKIQELKKEIEELKRKIWELKKENQELER [4H2667-bH] ) has interaction score equal to 1.31

Per the records, this binder ( DENQELKKKIEELERKNWELEKKIQELER [4H1845-bH] ) has interaction score equal to 0.106

Per the records, this binder ( DENQQLEQKIQELKQENQELKWKIQELEQ [4H1373-bN] ) has interaction score equal to -2.86
